system: reporter viruses pseudotyped with HIV-1SF162 envelope (U87-CD4-CCR5 cells); experiment: HIV-1 pseudovirus assay, SF162 envelope; assay type: cell-based; conditions: Human immunodeficiency virus 1, U87/CD4/CCR5
endpoint: IC50 (nM)
Express it in nM; write the number only.

Request: Look up and report measured IC50 for this entry: Cc1nnc(C(C)C)n1C1CC2CCC(C1)N2CC[C@H](NC(=O)C1CCC(F)(F)CC1)c1ccccc1 (stereo partly shown) [UK-427,857, reference compound]
Response: 0.87
